Reported selectivity ratio values for the following compounds.
# assayComment: Selectivity index, ratio of IC50 for rat L6 cells to IC50 for chloroquine-sensitive Plasmodium falciparum NF54
# Assay type: toxicity, cell-based
# conditionNotes: read-out: Ratio IC50
endpoint: selectivity ratio

In [3]: df
Out[3]:
                                    compound  reportedresult
 0  Cn1c2nc3ccccc3c-2c(NCCCN2C(=O)CCSC2c2ccc(F)cc2)c2ccccc21 (stereo not drawn)            71.6
 1  Cn1c2nc3ccccc3c-2c(NCCCNC(=O)Nc2ccccc2)c2ccccc21            58.4
 2  Cn1c2nc3ccccc3c-2c(NCCCNC(=O)c2cccs2)c2ccccc21            17.3
 3  Cn1c2nc3ccccc3c-2c(NCCCNC(=O)Nc2ccccc2)c2cc([N+](=O)[O-])ccc21            1300
 4  Cn1c2nc3ccccc3c-2c(NCCCNC(=O)Nc2ccccc2)c2cc(Cl)ccc21            1400
 5     Cn1c2nc3ccccc3c-2c(NCCCCCCN)c2ccccc21             7.1
 6  COc1ccc2c(c1)c(NCCCNC(=O)Nc1ccccc1)c1c3ccccc3nc-1n2C             621
 7  Cn1c2nc3ccccc3c-2c(NCCCNC(=O)Nc2ccccc2)c2cc(Br)ccc21             706
 8        Cn1c2nc3ccccc3c-2c(NCCCN)c2ccccc21             3.5
 9  Cn1c2nc3ccccc3c-2c(NCCCN2C(=O)CSC2c2ccc(Cl)cc2)c2ccccc21 (stereo not drawn)            54.4
10  Cn1c2nc3ccccc3c-2c(NCCCCCCNC(=O)Nc2ccccc2)c2ccccc21            15.4
11  Cn1c2nc3ccccc3c-2c(NCCCNS(=O)(=O)c2ccccc2)c2ccccc21               1
12  CN(C)c1ccc(C2SCC(=O)N2CCCNc2c3c4ccccc4nc-3n(C)c3ccccc23)cc1 (stereo not drawn)            64.7
13    Cn1c2nc3ccccc3c-2c(NCCCN)c2cc(Br)ccc21            24.8
14  Cn1c2nc3ccccc3c-2c(NCCCN2C(=O)c3ccccc3SC2c2ccc(Cl)cc2)c2ccccc21 (stereo not drawn)            41.3
15  Cn1c2nc3ccccc3c-2cc2ccccc21 [NEOCRYPTOLEPINE]               2
16  Cn1c2nc3ccccc3c-2c(NCCCNC(=O)Nc2ccccc2)c2cc(C(F)(F)F)ccc21             313
17    Cn1c2nc3ccccc3c-2c(NCCCN)c2cc(Cl)ccc21            22.8

Reference source for all entries: ChEMBL document CHEMBL2321781
